Tested on: HCT-15
Rule: GI50 below 20 µM gives y. Equal to or above 20 µM gives n.

Solved entries (count: 5):
Sc1nnc(/C=C/c2ccc(Cl)c(Cl)c2)[nH]1: n
COc1ccc(-c2c(C#N)c(N)nc(S)c2C#N)cc1: n
Cn1nc2n(c1=O)CCCN2: n
C=C(c1ccccc1N)[C@@]1(O)C[C@H](/C(=C\C)CO)C[C@@H]1NCc1ccccc1: n
N=C(N)C1CN(CCc2c[nH]cn2)C(=O)NC1=O (configuration not stated): n

Exercise: Find out if reported GI50 for `C/C(CN1C(=O)c2ccccc2C1=O)=N\NS(C)(=O)=O` is less than 20 µM
Solution: n

Exercise: Same thing, different compound: O=C(c1ccccc1)C1C(C(=O)c2ccccc2)N1Cc1ccccc1 (configuration not stated)
Solution: n

---

This section presents compounds with their documented GI50 values.
System: HCT-116
Experiment: NCI tumour cell line growth inhibition, 48 h
Activity calls are given as the source filed them. Rule as the data show it: active = GI50 up to about 1.1 µM and inactive = higher.

Reference set, count: 5
Cc1cccc(Nc2nc(NNC(=O)Cc3ccccc3)nc(NNC(=O)c3ccncc3)n2)c1: > 10 µM (inactive)
CC(Nc1ccc(Cl)c(Cl)c1)c1ccncc1 (stereo unspecified): 16.6 µM (inactive)
Cc1c(O)c(OC2OC(CO)C(O)C(O)C2O)cc2c1C=C[C@@H]1[C@@]2(C)C(=O)C[C@]2(C)[C@@H]([C@@](C)(O)C(O)/C=C/C(C)(C)O)[C@H](O)C[C@@]12C (stereo partly specified): > 100 µM (inactive)
O=C(O)CCSC(=O)Nc1cccc2ccccc12: > 100 µM (inactive)
O=c1[nH]c(=O)n([C@H]2C[C@H](O)[C@@H](CO)O2)cc1Br: > 94 µM (inactive)

# next compound below
Exercise: Using the record for COc1ccc([C@H]2CC(=O)N3CCCC3N2)cc1 (stereo partly specified) , report its GI50.
Solution: > 100 µM (inactive)

---

Test system: SNB-75
Assay: NCI tumour cell line growth inhibition, 48 h
Active and inactive are the calls of the source. Rule as the data show it: active = GI50 up to about 1.1 µM and inactive = higher.
In this exercise, the only acceptable responses are t for active, f for inactive

CCSC1=N/C(=C\c2ccco2)C(Nc2ccc(C)cc2)=N1: f

Exercise: What call does the record list for `Cc1cc(S(=O)(=O)Nc2nnc3c4ccccc4cnn23)c(S)cc1Cl` ?
Solution: f

Exercise: Same thing, different compound: `CCOP(=O)(OCC)/C(C#N)=C/c1c[nH]c2ccccc12`
Solution: f

Exercise: Same thing, different compound: `CN(CCNCc1cn(C)c2c1ccc1ccccc12)CCNCc1cn(C)c2c1ccc1ccccc12`
Solution: f

Exercise: Same thing, different compound: `COc1ccc2nc(-c3cccc(N(C)C)c3)cc(O)c2c1`
Solution: t

Exercise: Same thing, different compound: N=C(N)C1CN(CCc2c[nH]cn2)C(=O)NC1=O (stereo not given)
Solution: f

Exercise: Same thing, different compound: `COc1ccc(N/N=C2\C3=C(CCC(C)(C)O3)C(=O)c3ccccc32)cc1`
Solution: f

Exercise: Same thing, different compound: `O=C(NNc1ccccc1)/C(=C/c1ccc2c(c1)OCO2)NC(=O)c1ccccc1`
Solution: f

Exercise: Same thing, different compound: CCCCOP(C)(=O)C(NC(=O)OCC)(C(F)(F)F)C(F)(F)F (stereo not given)
Solution: f

Exercise: Same thing, different compound: `CCCCc1c2c(nc3c1CCc1cc4cc5c(nc4nc1-3)-c1nc3c(c(CCCC)c1CC5)CCCC3)CCCC2`
Solution: f

---

This section presents compounds with their documented GI50 values.
Test system: Malme-3M
Assay: NCI tumour cell line growth inhibition, 48 h
Active and inactive are the calls of the source. Cut-off read from the data, not from the text of the source: active = GI50 up to about 1.1 µM and inactive = higher.

COc1ccc([C@@]23OC[C@@H]4[C@@H](OC[C@@H]42)c2cc(OC)c(OC)cc23)cc1OC: > 100 µM (inactive)
O=C(NNc1ccccc1)/C(=C/c1ccc2c(c1)OCO2)NC(=O)c1ccccc1: > 100 µM (inactive)

Exercise: Using the record for COc1ccc2c(c1)CN1C(=N2)CSC1c1c(Cl)cccc1[N+](=O)[O-] (stereo not given) , report its GI50.
Solution: 30.2 µM (inactive)

---

This section presents compounds with their documented GI50 values.
Tested on: NCI-H460
Assay: NCI tumour cell line growth inhibition, 48 h
Calls of active or inactive are those of the source. Cut-off read from the data, not from the text of the source: active = GI50 up to about 1.1 µM and inactive = higher.

Reference set, count: 3
COc1cc(NC(C)c2ccc3c(c2)OCCO3)cc(OC)c1OC (stereo not given): 31.6 µM (inactive)
CN(C(=O)c1ccc(OCCCC(=O)O)c(Cl)c1Cl)C1CCCC1: > 95.3 µM (inactive)
C/C([O-])=C(/c1nc(-c2ccc([N+](=O)[O-])o2)no1)[n+]1cc(C)ccc1C: 4.62 µM (inactive)

Exercise: Using the record for `O=C(O)c1ccccc1C(=O)c1ccco1` , report its GI50.
Solution: > 100 µM (inactive)

Exercise: Same thing, different compound: `Cc1cc(S(=O)(=O)N/C(=C(\C#N)C(=O)c2ccc(Cl)cc2)[n+]2ccc(N(C)C)cc2)c([S-])cc1Cl`
Solution: 42.6 µM (inactive)

Exercise: Same thing, different compound: OC12CC3c4ccccc4NC3C3Oc4cccc5c4C31CCN(CC1CC1)C2C5 (stereo not given)
Solution: 17.6 µM (inactive)

Exercise: Same thing, different compound: `COc1ccc(C2=C(N)c3c(OC)cccc3C2=O)cc1`
Solution: > 100 µM (inactive)

Exercise: Same thing, different compound: `CSc1nc2ccccc2c(=O)n1/N=C1\C(=O)N(CN2CCOCC2)c2ccc(Cl)cc21`
Solution: 15.2 µM (inactive)

Exercise: Same thing, different compound: `c1cc2c(cc1[C@@H]1OC[C@@H]3[C@H]1CO[C@H]3c1ccc3c(c1)OCO3)OCO2`
Solution: > 100 µM (inactive)

Exercise: Same thing, different compound: `Clc1ccc(Cc2nc3cc4ccccc4cc3[nH]2)cc1Cl`
Solution: 6.97 µM (inactive)

---

Tested on: UACC-257
Test: NCI tumour cell line growth inhibition, 48 h
Calls of active or inactive are those of the source. No stated cut-off is given here; in the data, active = GI50 up to about 1.1 µM and inactive = higher.
VALUE_TYPE: GI50

C1=C(c2ccccc2)Nc2nnnn2C1c1ccccc1 (stereo unspecified): 48.1 µM (inactive)
Clc1nc(Nc2nc3ccccc3[nH]2)nc(Cl)c1Cc1ccccc1: > 100 µM (inactive)
O=c1c2ccc(Cl)cc2oc2c(CNc3ccc(S(=O)(=O)Nc4ncccn4)cc3)cccc12: > 100 µM (inactive)
Cc1ccc(S(=O)(=O)NN=C2C(C)CC(C(C)(C)C)CC2C)cc1 (stereo unspecified): 19.1 µM (inactive)
c1ccc(COc2ncccc2C2SCCCS2)cc1: > 100 µM (inactive)

Exercise: Using the record for `COc1cc(CCCl)c(CC2=NCCc3cc(OC)c(OC)cc32)cc1OC` , report its GI50.
Solution: > 100 µM (inactive)

---

This section presents compounds with their documented GI50 values.
Test system: OVCAR-5
Test: NCI tumour cell line growth inhibition, 48 h
Active and inactive are the calls of the source. No stated cut-off is given here; in the data, active = GI50 up to about 1.1 µM and inactive = higher.

Exercise: Using the record for CN(CCCCCl)P(=O)(OCC1=CC(=O)c2ccccc2C1=O)OC[C@H]1O[C@@H](n2cc(F)c(=O)[nH]c2=O)C[C@@H]1O (stereo not given in full) , report its GI50.
Solution: 4.38 µM (inactive)

Exercise: Same thing, different compound: CC(=O)N1C(Nc2cnc3ccccc3c2)CCN1c1ccccc1 (stereo not given)
Solution: > 10 µM (inactive)

Exercise: Same thing, different compound: CN(C)c1c(C2CC(O)C(CO)O2)c(=O)c1=O (stereo not given)
Solution: > 100 µM (inactive)

Exercise: Same thing, different compound: `O=C(CN1C(=O)c2ccccc2C1=O)NC1(C(=O)O)CCCC1`
Solution: > 100 µM (inactive)

Exercise: Same thing, different compound: `CC(=O)Nc1ccc2c(c1)/C(=C\c1ccc([N+](C)(C)C)cc1)c1ccccc1-2`
Solution: 18.8 µM (inactive)

---

Test system: MCF7
Assay: NCI tumour cell line growth inhibition, 48 h
Active and inactive are the calls of the source. Cut-off read from the data, not from the text of the source: active = GI50 up to about 1.1 µM and inactive = higher. Peptide text beside a SMILES is read from it. * marks the point of attachment. Boc = CC(C)(C)OC(=O)*
In this exercise, the only acceptable responses are active, inactive

Solved entries (count: 3):
N/C(=N\O)N/N=C\c1cc([N+](=O)[O-])cc([N+](=O)[O-])c1O: inactive
CSCCC(NC(=O)C(CC(C)C)NC(=O)CNC(=O)OC(C)(C)C)C(=O)N(C)C (stereo not drawn) (Boc-Gly-Leu-Met-NMe2; configuration not given here): inactive
Cc1cc2c(c(C)c1O)C(C)(C)CN2C(=O)C(C)(C)C: inactive

Exercise: What call does the record list for `COc1ccc2[nH]c3c(C)c4ccnc(NCCCN(C)CCCNC(=O)NCCCN(C)CCCNc5nccc6c(C)c7[nH]c8ccc(OC)cc8c7c(C)c56)c4c(C)c3c2c1` ?
Solution: active

Exercise: Same thing, different compound: `CNc1c2cccc(C)c2nc2c(C(=O)NCCN(C)C)cccc12`
Solution: active

Exercise: Same thing, different compound: `Clc1ccc(OCc2nnc(CCCCCCCCc3nnc(COc4ccc(Cl)cc4Cl)n3Nc3ccccc3)n2Nc2ccccc2)c(Cl)c1`
Solution: inactive

Hey, just so you know, these numbers are from ChEMBL document CHEMBL1201862.
